tested on: 454973-116-R2-J3-PDC complex spheroid viability; test: Anticancer human tumor 454973-116-R2-J3-PDC patient-derived pancreatic carcinoma cell line growth inhibition [POLQ]; conditions: second compound 1 µM; first compound 3.16 µM; stronger effect = lower value;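 further: spheroids exposed to drugs for seven days before measurement; percent viability relative to DMSO vehicle control wells taken as 100%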
assay.readout: viability, T/C (%)
Respond with the bare value in %.

Q. Recorded viability, T/C for CCc1cc2c(N3CCc4c(cc(Cn5ccnc5)cc4-c4cn(C)nc4C(F)(F)F)C3=O)ccnc2c(OC)n1 + Cc1cccc(N(C)C(=O)C2C(O)CCN2c2nc(C)cc(C(F)(F)F)c2C#N)c1 , please?
A. 80.8

Q. Recorded viability, T/C for CC1COCCN1c1cc(C2(S(C)(=N)=O)CC2)nc(-c2ccnc3[nH]ccc23)n1 (stereo not given) + Cc1cccc(N(C)C(=O)C2C(O)CCN2c2nc(C)cc(C(F)(F)F)c2C#N)c1 , please?
A. 75

Q. Recorded viability, T/C for CC(C)n1c(=O)n(C)c2cnc3cc(F)c(-c4ccc(OCCCN5CCCCC5)nc4)cc3c21 + Cc1cccc(N(C)C(=O)C2C(O)CCN2c2nc(C)cc(C(F)(F)F)c2C#N)c1 , please?
A. 104

Q. Recorded viability, T/C for C=CC(=O)N1CCN(c2nc(=O)n(-c3c(C)ccnc3C(C)C)c3nc(-c4c(O)cccc4F)c(F)cc23)C(C)C1 (stereo not given) + COC1C(OC(N)=O)C(O)C(Oc2ccc3c(O)c(NC(=O)c4ccc(O)c(CC=C(C)C)c4)c(=O)oc3c2C)OC1(C)C , please?
A. 104

Q. Recorded viability, T/C for C#Cc1c(F)ccc2cc(O)cc(-c3ncc4c(N5CC6CCC(C5)N6)nc(OCC56CCCN5CC(F)C6)nc4c3F)c12 (stereo not given) + COC1C(OC(N)=O)C(O)C(Oc2ccc3c(O)c(NC(=O)c4ccc(O)c(CC=C(C)C)c4)c(=O)oc3c2C)OC1(C)C , please?
A. 31.1
